B1: ZBTB22 (parent)
chain: AVLAASSPYFHDQVLLKGMTSISL

variants of: B1; experiment: protein stability index of a GFP-peptide fusion (GPS, HEK-293T) (PSI 1-6); higher = more stable; conditions: c terminus: a fixed tail appended;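 note: lentivirally expressed fusions sorted by FACS into six bins by GFP to DsRed ratio, PSI derived from sequencing read proportions per bin multiplied by bin number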
This section presents variants with their documented protein stability index values.
Note: the reply should be a number with no unit written.

Examples with their reported protein stability index follow.
I22S 1.29
V2D 2.17
V2T 1.45
L15H 1.4
A1Q 2.39

From here, focus on the item given below.
# variant `Y9F` ; its protein stability index = 3.55
